// provenance: patent US20230138395A1

# reported MFC50; entries follow
tested on: C. parapsilosis; test: MFC determination; format: cell-based; settings: C. parapsilosis; kills 50% of strains
Could you give me the number in µg/mL? Just the number is fine.

Notebook entry, C. parapsilosis assay: MFC50 of `C[C@@H]1[C@H](O)[C@@H](C)/C=C/C=C/C=C/C=C/C=C/C=C/C=C/[C@H](O[C@@H]2O[C@H](C)[C@@H](O)[C@H](N)[C@@H]2O)C[C@@H]2O[C@](O)(C[C@@H](O)C[C@@H](O)[C@H](O)CC[C@@H](O)C[C@@H](O)CC(=O)O[C@H]1C)C[C@H](O)[C@H]2C(=O)O` = ?
1

Another molecule: `C[C@@H]1[C@H](O)[C@@H](C)/C=C/C=C/C=C/C=C/C=C/C=C/C=C/[C@H](O[C@@H]2O[C@H](C)[C@@H](O)[C@H](N)[C@@H]2O)C[C@@H]2O[C@](O)(C[C@@H](O)[C@H](O)CC[C@@H](O)C[C@@H](O)C[C@@H](O)CC(=O)O[C@H]1C)C[C@H](O)[C@H]2C`
0.5
